assay: Cmax in healthy white human with SLCO1B1 521TC/CYP2C8*1/*1 combined genotype at 2 mg, po; format: ADME, organism-based; design: dose 2 mg, route oral; settings: in vivo
parameter: Cmax (ng/mL)
Please give a number only; it is taken to be in ng/mL.

Any idea what its Cmax is? The compound is CCOc1cc(CC(=O)N[C@@H](CC(C)C)c2ccccc2N2CCCCC2)ccc1C(=O)O [REPAGLINIDE]
83.7

====

assay: AUC (0 to infinity) in healthy white human with SLCO1B1 521CC/CYP2C8*1/*3 combined genotype at 2 mg, po; type: ADME, organism-based; parameters: dose 2 mg, time infinity, route oral; conditions: plasma
parameter: AUC(0-inf) (µg·h/mL)
Please give a number only; it is taken to be in µg·h/mL.

Any idea what its AUC(0-inf) is? The compound is CCOc1cc(CC(=O)N[C@@H](CC(C)C)c2ccccc2N2CCCCC2)ccc1C(=O)O [REPAGLINIDE]
0.0182
